This collection of values is drawn from ChEMBL document CHEMBL1921725.

- study_system: P2X purinoceptor 7 (Homo sapiens, UniProt Q99572)
- Sequence (Q99572 whole entry): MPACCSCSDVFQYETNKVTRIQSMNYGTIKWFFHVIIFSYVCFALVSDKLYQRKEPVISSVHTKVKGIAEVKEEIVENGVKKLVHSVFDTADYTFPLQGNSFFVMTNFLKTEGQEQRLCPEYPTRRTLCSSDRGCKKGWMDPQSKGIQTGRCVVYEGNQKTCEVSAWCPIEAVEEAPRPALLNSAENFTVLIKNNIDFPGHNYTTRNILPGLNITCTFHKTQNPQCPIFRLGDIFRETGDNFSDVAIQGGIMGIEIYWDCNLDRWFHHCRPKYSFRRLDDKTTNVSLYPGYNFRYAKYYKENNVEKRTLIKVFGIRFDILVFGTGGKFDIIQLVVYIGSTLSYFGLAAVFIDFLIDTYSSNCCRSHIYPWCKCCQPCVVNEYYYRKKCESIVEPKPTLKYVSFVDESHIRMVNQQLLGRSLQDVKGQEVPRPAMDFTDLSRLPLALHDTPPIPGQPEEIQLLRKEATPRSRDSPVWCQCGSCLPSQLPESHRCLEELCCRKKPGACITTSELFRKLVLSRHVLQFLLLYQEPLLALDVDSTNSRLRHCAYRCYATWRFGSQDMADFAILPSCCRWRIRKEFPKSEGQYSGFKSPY
- assay_info: Antagonist activity at P2X7 receptor in LPS-stimulated human whole blood assessed as inhibition of ATP-induced IL1-beta production treated 30 mins before LPS challenge measured after 3 hrs by ELISA
- Assay type: functional, tissue-based
readout_name: IC50 (nM)

As a guide, the following entries are already answered.
[[record]]
smiles_entry = "CCN1C(=O)c2nc(-c3ccc(-c4ccccc4)cc3)n(Cc3ccc(F)cc3F)c2N2CC(C)(C)N=C12"
observed_measurement = 700

[[record]]
smiles_entry = "CCN1C(=O)c2nc(-c3ccc(-c4ccccc4)cc3)n(Cc3cccc(F)c3F)c2N2C[C@@H](C(C)C)N=C12"
observed_measurement = 870

[[record]]
smiles_entry = "CCN1C(=O)c2nc(-c3ccc(-c4cc(F)cc(F)c4)nc3)n(Cc3ccc(F)c(F)c3)c2N2CC(C)(C)N=C12"
observed_measurement = 55


A: CCN1C(=O)c2nc(-c3ccc(-c4ccccc4)cc3)n(Cc3cc(F)cc(F)c3)c2N2C[C@@H](C(C)C)N=C12
B: CCN1C(=O)c2nc(-c3ccc(-c4ccccc4)cc3)n(Cc3ccc(F)cc3F)c2N2C[C@@H](C(C)C)N=C12
### Prompt I'm curious whether A or B has the smaller IC50 number. Which is it? In your reply, give the label of the chosen option.
### Response A
(A: 107 nM, B: 845 nM)

A: CCN1C(=O)c2nc(-c3ccc(-c4ccccc4)cc3)n(Cc3ccc(F)c(F)c3)c2N2CC(C)(C)N=C12
B: CCN1C(=O)c2nc(-c3ccc(-c4ccccc4)cc3)n(Cc3ccccc3F)c2N2C[C@@H](C(C)C)N=C12
### Prompt I'm curious whether A or B has the smaller IC50 number. Which is it? In your reply, give the label of the chosen option.
### Response A
(A: 85 nM, B: 937 nM)

1: CCN1C(=O)c2nc(-c3ccc(-c4ccccc4)cc3)n(Cc3ccc(F)c(F)c3)c2N2CCC(C)(C)N=C12
2: CCN1C(=O)c2nc(-c3ccc(-c4ccccc4)cc3)n(Cc3cccc(F)c3)c2N2C[C@@H](C(C)C)N=C12
### Prompt Which entry has a larger number for IC50, 1 or 2 ? In your reply, give the label of the chosen option.
### Response 2
